These measurements were taken from PubChem BioAssay (NCI).

System: MDA-N
Assay: NCI tumour cell line growth inhibition, 48 h
Recorded measurements of TGI, one per entry
quantity.kind: TGI

[[record]]
molecule = "CC(=O)N(C)c1ccc(N=CN(C)C)cc1"
quantity_kind = "TGI"
measured = "> 100 µM"

[[record]]
molecule = "Clc1ccc(Nc2nnc(CCCCCCCCc3nnc(Nc4ccc(Cl)cc4)o3)o2)cc1"
quantity_kind = "TGI"
measured = "> 100 µM"

[[record]]
molecule = "O=C(c1cc2ccccc2[nH]1)N1C2CCC1CN(CCOC(c1ccc(F)cc1)c1ccc(F)cc1)CC2 (configuration not stated)"
quantity_kind = "TGI"
measured = "> 100 µM"

[[record]]
molecule = "Oc1cc(O)c2ccc(-c3ccc(O)c(O)c3)[o+]c2c1"
quantity_kind = "TGI"
measured = "> 100 µM"

[[record]]
molecule = "N#Cc1cnc(-n2[nH]c3c(c2=O)CCCC3)[nH]c1=O"
quantity_kind = "TGI"
measured = "> 100 µM"

[[record]]
molecule = "CCCCNc1nc2ccccc2c2c1ncn2CC(C)C"
quantity_kind = "TGI"
measured = "> 100 µM"

[[record]]
molecule = "Cc1cc(O)c2c(c1O)C(=O)c1cccc(O)c1C2=O"
quantity_kind = "TGI"
measured = "> 100 µM"

[[record]]
molecule = "CC(=O)C1C(=O)C(=O)N(c2ccccc2)C1=O (configuration not stated)"
quantity_kind = "TGI"
measured = "> 100 µM"

[[record]]
molecule = "O=C(c1ccccc1)c1ccc(N2C(=O)/C(=C/Cc3ccco3)N=C2c2ccccc2)c(N2C(=O)/C(=C/Cc3ccco3)N=C2c2ccccc2)c1"
quantity_kind = "TGI"
measured = "> 100 µM"

[[record]]
molecule = "c1cnn(C23C4C5C6C4C2C6C53)c1 (configuration not stated)"
quantity_kind = "TGI"
measured = "> 100 µM"

[[record]]
molecule = "COc1cc(=O)c2c(O)c3c(O)oc(C)cc3c(OC)c2c1"
quantity_kind = "TGI"
measured = "80.6 µM"

[[record]]
molecule = "CCCCCCCCCCCCCCCCCCNc1ccn(C2OC(COP(=O)(O)OCC3OC(n4cc(C)c(=O)[nH]c4=O)CC3F)C(O)C2O)c(=O)n1 (configuration not stated)"
quantity_kind = "TGI"
measured = "38.9 µM"

[[record]]
molecule = "CCOc1ccc(N/C(=C(/C(Cl)=C(/Cl)Nc2ccccc2)[N+](=O)[O-])n2nnc3ccccc32)cc1"
quantity_kind = "TGI"
measured = "40.3 µM"

[[record]]
molecule = "Cn1c(NNc2ccccc2)cc(=O)[nH]c1=O"
quantity_kind = "TGI"
measured = "45.4 µM"

[[record]]
molecule = "O=C(NC(=S)Nc1ccc2c(c1)Sc1ccccc1O2)c1ccc([N+](=O)[O-])cc1"
quantity_kind = "TGI"
measured = "> 100 µM"

[[record]]
molecule = "NC(=O)C(=O)c1ncn(Cc2ccccc2)c1N"
quantity_kind = "TGI"
measured = "> 100 µM"

[[record]]
molecule = "C=CCc1[nH]c2c(OCc3ccccc3)cc(N(CC=C)C(C)=O)cc2c1C"
quantity_kind = "TGI"
measured = "27.9 µM"

